B1: tRNA (parent)
chain: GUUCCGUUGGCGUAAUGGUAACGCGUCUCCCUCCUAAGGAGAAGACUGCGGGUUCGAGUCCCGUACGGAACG

variants of: B1; experiment: yeast fitness relative to wild type (ratio to wild type); higher = fitter; tRNA-Arg(CCU), competitive growth, 37 C, YPD
Fewer inactive variants are shown than the library holds.
parameter measured: yeast fitness
Answer as a number with no unit attached.

Some solved entries appear below for comparison.
1. G25A A37C C61U = 0.572
2. G18A G67A = 0.675
3. C11A C62G A70U = 0.542

Any idea what its yeast fitness is? The variant is C22U C27A C46A
0.66

What measured yeast fitness goes with A20C C30A C55A G67A ?
0.534

yeast fitness lookup needed for U19A C27U , thanks.
1.02

Values compiled from the RNAGym collection of RNA variant scans (doi:10.1126/science.aae0568).
